FYI, the data here is from patent US8765786B2.

Target: human α7 nAChR (Homo sapiens, UniProt P36544)
Construct: expressed in transfected cells; host or cells: GH4C1 cells derived from rat pituitary (ATCC CCL-82.2)
Sequence (P36544 23-502): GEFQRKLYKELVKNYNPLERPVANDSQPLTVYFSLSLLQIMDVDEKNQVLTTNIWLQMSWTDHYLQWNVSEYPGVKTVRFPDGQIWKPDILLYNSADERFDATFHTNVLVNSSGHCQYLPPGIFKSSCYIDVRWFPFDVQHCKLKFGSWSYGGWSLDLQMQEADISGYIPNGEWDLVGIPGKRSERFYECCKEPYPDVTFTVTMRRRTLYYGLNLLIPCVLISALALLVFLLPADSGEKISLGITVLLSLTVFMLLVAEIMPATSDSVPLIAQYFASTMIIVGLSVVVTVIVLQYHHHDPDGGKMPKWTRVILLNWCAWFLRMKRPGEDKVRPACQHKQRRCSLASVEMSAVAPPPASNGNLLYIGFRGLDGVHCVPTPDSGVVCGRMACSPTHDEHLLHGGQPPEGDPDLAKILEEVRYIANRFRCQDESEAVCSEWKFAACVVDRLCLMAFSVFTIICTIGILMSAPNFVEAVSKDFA
Assay: Evaluation of PAM activity with human α7 nACh receptor stably expressing cells (aequorin luminescence, FDSS7000)
Assay type: cell-based
Conditions: test compound 10 μmol/L; ACh added at EC20; ratio of RLU (Max-Min) of test wells to control wells
TEST READOUT: α7PAM (%) @ 10 μmol/L
Give bare numbers, in %.

Before answering, review these 5 worked examples.
{"columns": ["COMPOUND", "SYSTEM TESTED", "OBSERVED RESULT"],
 "data": [
  ["COCC1CCC(NC(=O)N2CCC(n3ncc4cc(OC(C)C)ccc43)CC2)CC1 (stereo not drawn)", "human α7 nAChR (Homo sapiens, UniProt P36544)", 611],
  ["COc1ccc2c(cnn2C2CCN(C(=O)NC3CCCC3(F)F)CC2)c1 (stereo not drawn) [Example 88]", "human α7 nAChR (Homo sapiens, UniProt P36544)", 1063],
  ["CCc1ccc2c(cnn2C2CCN(C(=O)C3CCC(OC)CC3)CC2)c1 (stereo not drawn)", "human α7 nAChR (Homo sapiens, UniProt P36544)", 209],
  ["CCOc1nn(C2CCN(C(=O)NC3CCCC3)CC2)c2ccc(CC)cc12", "human α7 nAChR (Homo sapiens, UniProt P36544)", 676],
  ["CO[C@H]1CC[C@H](NC(=O)N2CCC(n3ncc4c(C)c(C)ccc43)CC2)CC1", "human α7 nAChR (Homo sapiens, UniProt P36544)", 480]
]}

Batch lookup, α7PAM (%) @ 10 μmol/L per entry.
1. COc1cccc2c1cnn2C1CCN(C(=O)NC2CCC(F)(F)CC2)CC1
2. O=C(NC1CCC(F)(F)CC1)N1CCC(n2ncc3cc(N4CCCC4)ccc32)CC1
3. O=C(NC1CC(F)(F)C1)N1CCC(n2ncc3cc(C4CC4)ccc32)CC1
4. O=C(NC1CCC(F)(F)CC1)N1CCC(n2ncc3c(C4CC4)cccc32)CC1

1: 742; 2: 286; 3: 517; 4: 567
